Value source: the supplement of paper PMC11316812

tested on: MCF7; assay: percentage of EdU-negative (G0-arrested) nuclei per well, 72 h; higher = more G0 arrest; conditions: protein concentration 0.3125 µM; reference: sequence is the full UniProt precursor, the tested protein was the secreted form or ectodomain
Give percentage of EdU-negative for every item shown.
Give bare numbers, in %.

SEQ TEXT	ASSAY RESULT
MGLLLPLALCILVLCCGAMSPPQLALNPSALLSRGCNDSDVLAVAGFALRDINKDRKDGYVLRLNRVNDAQEYRRGGLGSLFYLTLDVLETDCHVLRKKAWQDCGMRIFFESVYGQCKAIFYMNNPSRVLYLAAYNCTLRPVSKKKIYMTCPDCPSSIPTDSSNHQVLEAATESLAKYNNENTSKQYSLFKVTRASSQWVVGPSYFVEYLIKESPCTKSQASSCSLQSSDSVPVGLCKGSLTRTHWEKFVSVTCDFFESQAPATGSENSAVNQKPTNLPKVEESQQKNTPPTDSPSKAGPRGSVQYLPDLDDKNSQEKGPQEAFPVHLDLTTNPQGETLDISFLFLEPMEEKLVVLPFPKEKARTAECPGPAQNASPLVLPP [Q9UGM5]	27.9
MTPHRLLPPLLLLLALLLAASPGGALARCPGCGQGVQAGCPGGCVEEEDGGSPAEGCAEAEGCLRREGQECGVYTPNCAPGLQCHPPKDDEAPLRALLLGRGRCLPARAPAVAEENPKESKPQAGTARPQDVNRRDQQRNPGTSTTPSQPNSAGVQDTEMGPCRRHLDSVLQQLQTEVYRGAQTLYVPNCDHRGFYRKRQCRSSQGQRRGPCWCVDRMGKSLPGSPDGNGSSSCPTGSSG	25.8

Consider now this further sequence.
Qu. Name the reported percentage of EdU-negative value associated with the sequence `MKLAVTLTLVTLALCCSSASAEICPSFQRVIETLLMDTPSSYEAAMELFSPDQDMREAGAQLKKLVDTLPQKPRESIIKLMEKIAQSSLCN`
Ans. 24.6

###

system: MCF7; assay: percentage of EdU-negative (G0-arrested) nuclei per well, 72 h; higher = more G0 arrest; settings: protein concentration 0.225 µM; reference: sequence is the full UniProt precursor, the tested protein was the secreted form or ectodomain;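 note: secreted proteins added to cultured cells, EdU pulse at the end, nuclei found by Hoechst imaging, EdU status from nuclear versus surrounding ring intensity ratio, PBS as neutral control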
MEASUREMENT NAME: percentage of EdU-negative (%)
One number for each entry, in %.

SEQ TEXT	UNIT NAME	percentage of EdU-negative
MALRRPPRLRLCARLPDFFLLLLFRGCLIGAVNLKSSNRTPVVQEFESVELSCIITDSQTSDPRIEWKKIQDEQTTYVFFDNKIQGDLAGRAEILGKTSLKIWNVTRRDSALYRCEVVARNDRKEIDEIVIELTVQVKPVTPVCRVPKAVPVGKMATLHCQESEGHPRPHYSWYRNDVPLPTDSRANPRFRNSSFHLNSETGTLVFTAVHKDDSGQYYCIASNDAGSARCEEQEMEVYDLNIGGIIGGVLVVLAVLALITLGICCAYRRGYFINNKQDGESYKNPGKPDGVNYIRTDEEGDFRHKSSFVI [Q9BX67]	%	24.5

Qu. Name the reported percentage of EdU-negative value associated with the sequence `MLVRRGARAGPRMPRGWTALCLLSLLPSGFMSLDNNGTATPELPTQGTFSNVSTNVSYQETTTPSTLGSTSLHPVSQHGNEATTNITETTVKFTSTSVITSVYGNTNSSVQSQTSVISTVFTTPANVSTPETTLKPSLSPGNVSDLSTTSTSLATSPTKPYTSSSPILSDIKAEIKCSGIREVKLTQGICLEQNKTSSCAEFKKDRGEGLARVLCGEEQADADAGAQVCSLLLAQSEVRPQCLLLVLANRTEISSKLQLMKKHQSDLKKLGILDFTEQDVASHQSYSQKTLIALVTSGALLAVLGITGYFLMNRRSWSPTGERLGEDPYYTENGGGQGYSSGPGTSPEAQGKASVNRGAQENGTGQATSRNGHSARQHVVADTEL`
Ans. 27.2
